Biological target: T1, human TF-His (human, UniProt P13726 33-251)
T1 construct: range 33-251; Recombinant extracellular segment expressed in HEK293-EBNA cells and purified on a nickel column; also called h.TF-His; h; TF-his; not shown: His tag from vector pTT5-His
Assay: antigenic protein-based ELISA, before conjugation (TF antigen species not stated)
Method: The ELISA plate was coated overnight with TF antigen (h.TF-His or c.TF-His antigen) in 50 mM carbonate coating buffer (CBS coating solution) at a coating concentration of 1 μg/mL in a volume of 100 μL at 4° C. […] 50 μL of 2 N HCl was added to each well to stop the reaction, and OD450 nm values were read using a microplate reader (manufacturer: MD, model: SpectraMax) and imported into GraphPad software for fitting and plotting to determine the binding of the samples to TF antigenic proteins.
Reported endpoint: EC50 (ng/mL)
Reply with just the number (in ng/mL).

[[record]]
binder = "30G11B7-hz1 (antibody, human IgG1, kappa, V domains shown, Humanized IgG1 kappa) VH: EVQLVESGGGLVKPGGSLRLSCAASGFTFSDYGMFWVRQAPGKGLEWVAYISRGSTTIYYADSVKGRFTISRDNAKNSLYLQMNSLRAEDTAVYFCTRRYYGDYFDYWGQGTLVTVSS VL: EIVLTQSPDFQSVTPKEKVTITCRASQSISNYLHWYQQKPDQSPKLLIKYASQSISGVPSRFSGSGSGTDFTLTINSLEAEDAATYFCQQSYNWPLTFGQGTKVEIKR"
result = 7.68

[[record]]
binder = "2B12B10-hz1 (antibody, human IgG1, kappa, V domains shown, Humanized IgG1 kappa) VH: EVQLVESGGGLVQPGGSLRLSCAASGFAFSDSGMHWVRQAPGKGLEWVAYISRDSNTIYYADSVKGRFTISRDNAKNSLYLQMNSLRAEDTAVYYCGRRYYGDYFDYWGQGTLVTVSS VL: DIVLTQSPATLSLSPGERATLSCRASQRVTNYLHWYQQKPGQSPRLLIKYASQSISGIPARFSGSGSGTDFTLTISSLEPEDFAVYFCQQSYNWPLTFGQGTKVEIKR"
result = 6.65

[[record]]
binder = "22F11H5-hz1 (antibody, human IgG1, kappa, V domains shown, Humanized IgG1 kappa) VH: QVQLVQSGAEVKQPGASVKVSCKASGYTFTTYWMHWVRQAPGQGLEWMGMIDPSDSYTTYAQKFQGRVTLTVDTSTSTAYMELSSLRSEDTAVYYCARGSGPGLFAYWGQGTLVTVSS VL: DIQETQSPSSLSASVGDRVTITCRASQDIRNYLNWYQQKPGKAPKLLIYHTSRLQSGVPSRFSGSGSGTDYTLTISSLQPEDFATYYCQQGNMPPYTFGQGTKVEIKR"
result = 5.15


Kindly consider the entry below.
Data request, read-out EC50, for 27H8H3-hz1 (antibody, human IgG1, kappa, V domains shown, Humanized IgG1 kappa) VH: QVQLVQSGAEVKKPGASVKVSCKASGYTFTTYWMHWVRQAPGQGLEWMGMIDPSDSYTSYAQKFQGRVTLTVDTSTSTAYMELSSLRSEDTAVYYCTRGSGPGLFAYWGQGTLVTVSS VL: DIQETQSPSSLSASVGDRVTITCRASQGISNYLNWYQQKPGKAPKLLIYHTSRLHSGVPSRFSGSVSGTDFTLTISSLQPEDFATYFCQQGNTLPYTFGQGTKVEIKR
3.13
